assay-comment: qHTS Assay for Lipid Storage Modulators (AID 1519)
condition-label: Drosophila S3 cells, BODIPY lipid droplet/cell ratio, laser cytometry; measured here: cell count channel max response; cells loaded with oleic acid
Records with an inconclusive call do not appear.
Classify: TRUE when max response is strictly less than 10%; FALSE when max response is not.

Use these answered entries as a reference point.
- molecule: "C#CCN(C)C(C)Cc1ccccc1 (stereo not given)"
  label-class: "FALSE"
- molecule: "c1ccc(CN2CCC3(CCNCC3)CC2)cc1"
  label-class: "FALSE"

Would you kindly verify if max response of CCS(=O)CCSP(=O)(OC)OC (stereo not given) is strictly less than 10%?
TRUE

One more molecule: `CNC(=O)Oc1ccccc1OC(C)C`
FALSE

One more molecule: `C[C@H]1CC[C@@]2(NC1)O[C@@H]1C[C@H]3[C@@H]4CC=C5C[C@@H](O)CC[C@]5(C)[C@@H]4CC[C@]3(C)[C@@H]1[C@@H]2C`
TRUE

One more molecule: C=C1C([C@@]2(C)C(OC(C)=O)CC(=O)O[C@@](C)(COC(C)=O)C2CC(=O)OC)C(OC=O)C(OC(=O)C(OC(C)=O)C(C)CC)[C@]2(C)C(c3ccoc3)CC(=O)C12O (stereo not given in full)
FALSE

One more molecule: COc1cc2c(cc1OC)C(C)NCC2 (stereo not given)
FALSE

One more molecule: `COc1ccc(NC(=O)N2CCC3(CC2)CCN(C(=O)Oc2ccccc2)CC3)cc1`
TRUE

One more molecule: `CC(C)OC(=O)Nc1cccc(Cl)c1`
TRUE

One more molecule: `CN(C)[C@@H]1C(=O)C(C(N)=O)=C(O)[C@]2(O)C(=O)C3=C(O)c4c(O)ccc(Cl)c4[C@](C)(O)[C@H]3C[C@@H]12`
TRUE

One more molecule: Oc1ccc2c3c1OC1C(O)CC[C@]4(O)C(C2)N(CC2CCC2)CC[C@]314 (stereo not given in full)
FALSE

One more molecule: `C=CCN1CC[C@@]2(C)c3cc(O)ccc3CC1[C@@H]2C`
FALSE

One more molecule: `CN1CCC2=C[C@H](O)[C@@H]3OC(=O)c4cc5c(cc4[C@H]3[C@H]21)OCO5`
TRUE

One more molecule: CC1CC[C@]2(NC1)OC1CC3C4CC=C5CC(O)CC[C@@]5(C)C4CC[C@]3(C)C1C2C (stereo not given in full)
FALSE

====

assay-comment: Cell Viability - LYMP2-019 (AID 973);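 further: cells exposed to compound for 24 h at 37 °C; nearly all actives have a fitted effect of over 55% in size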
condition-label: LYMP2-019 lymphoblastoid cell line viability; series mostly up to 92.2 µM
Results filed as inconclusive are left out. Active and inactive are the calls of the source. Calls come from the whole dose curve; as a rule, active = well fitted cell-killing curve with a large enough effect; inconclusive = small, poorly fitted or top-dose-only effect; inactive = flat fitted curve, though single readings scatter.
The reply should name one outcome from active, inactive

Use these answered entries as a reference point.
- compound: "Cc1cccc(C#N)c1"
  label-class: "inactive"
- compound: "Clc1nc(Cl)nc(Nc2ccccc2Cl)n1"
  label-class: "inactive"
- compound: "O=NN(CCO)CCO"
  label-class: "inactive"
- compound: "ClC(Cl)=C(Cl)Cl"
  label-class: "inactive"
- compound: "c1nc[nH]n1"
  label-class: "inactive"

Could you now consider this next compound?
How did this test come out for ClC1=C(Cl)C2(Cl)C3C(Cl)C=CC3C1(Cl)C2(Cl)Cl (stereo not drawn) ?
inactive

====

assay-comment: qHTS for differential inhibitors of proliferation of Plasmodium falciparum line 7G8 (AID 1815);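 further: parasite growth measured after three days of incubation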; further: potency means the concentration at half of the fitted maximal effect
condition-label: Plasmodium falciparum 7G8 proliferation inhibition; series mostly up to 28.7 µM
Inconclusive results are not listed. Calls of active or inactive are those of the source. Calls come from the whole dose curve; as a rule, active = well fitted curve in the direction sought with a large enough effect; inconclusive = small, poorly fitted or top-dose-only effect, or another doubt; inactive = no such curve, though single readings can be large or run the other way.
property-measured: Potency

Look over these answered cases.
- compound: "O=C(O)C1C2CCC(O2)C1C(=O)O (stereo not drawn)"
  property-measured: "Potency"
  reported-value: "inactive"
- compound: "CCN1C[C@]2(C)CC[C@H](O)[C@@]34[C@@H]5C[C@@H]6[C@@H](OC)C[C@@](O)(C5[C@H]6O)[C@@H](C[C@@H]23)[C@@H]14"
  property-measured: "Potency"
  reported-value: "inactive"
- compound: "S=C(S)N1CCCC1"
  property-measured: "Potency"
  reported-value: "2820 nM (active)"
- compound: "CCNC(=O)[C@H]1O[C@@H](n2cnc3c(N)ncnc32)[C@H](O)[C@H]1O"
  property-measured: "Potency"
  reported-value: "inactive"
- compound: "Nc1ncnc2c1ncn2[C@@H]1O[C@H](COP(=O)(O)CP(=O)(O)OP(=O)(O)O)[C@H](O)[C@H]1O"
  property-measured: "Potency"
  reported-value: "inactive"

Quick one: Potency of CC(C)[C@@]1(NC(=O)[C@@H]2C[C@@H]3c4cccc5[nH]cc(c45)C[C@H]3N(C)C2)O[C@@]2(O)C3CCCN3C(=O)[C@H](Cc3ccccc3)N2C1=O (stereo partly drawn) ?
316 nM (active)

One more compound: `CCCN(CCC)[C@@H]1CCc2c(F)ccc(O)c2C1`
1120 nM (active)

One more compound: CC(C)C[C@H]1C(=O)N2CCCC2[C@]2(O)O[C@](NC(=O)[C@@H]3C=C4c5cccc6[nH]c(Br)c(c56)C[C@H]4N(C)C3)(C(C)C)C(=O)N12 (stereo partly drawn)
891 nM (active)
